max response values by entry
# Tested on: NIH3T3
# assay-name: Cytotoxic Profiling of Annotated Libraries Using Quantitative High-Throughput Screening (AID 1296008); also: % is scaled to controls: 0 for no effect and ±100 for the full control effect; nearly all actives have a fitted effect of over 60% in size
# run-conditions: Five cell lines viability, CellTiter-Glo ATP luminescence, 48-72 h; active compounds read low
Records with an inconclusive call do not appear.
The answer is to be given in %; state only the numeric part.

Would you please look over these solved cases?
>  <mol>
O=C(Nc1ccc(Oc2ccc(Cl)cc2)c(Cl)c1)c1cc(I)cc(I)c1O

>  <target-system>
NIH3T3

>  <max response / %>
0.252

$$$$
>  <mol>
O=C1OC2(c3ccc(O)cc3Oc3cc(O)ccc32)c2ccccc21

>  <target-system>
NIH3T3

>  <max response / %>
-4.38

$$$$
>  <mol>
CC(O)(P(=O)(O)O)P(=O)(O)O

>  <target-system>
NIH3T3

>  <max response / %>
0.0838

$$$$

Task item: Tell me the measured max response of CC1(C)O[C@@H]2[C@@H](CO[C@@]3(COS(N)(=O)=O)OC(C)(C)O[C@@H]23)O1 , please.
Reply: -0.846

All values here come from PubChem BioAssay (NCATS).
